# Experimental System: T1, extracellular domain (ECD) of recombinant human Sortilin with a C-terminal HIS tag (ECD-huSortilin-HIS) (human, UniProt Q99523 78-755)
# T1 construct: Bought (R&D Systems); also called human sortilin-ECD; not shown: C-terminal HIS tag
# T1 sequence: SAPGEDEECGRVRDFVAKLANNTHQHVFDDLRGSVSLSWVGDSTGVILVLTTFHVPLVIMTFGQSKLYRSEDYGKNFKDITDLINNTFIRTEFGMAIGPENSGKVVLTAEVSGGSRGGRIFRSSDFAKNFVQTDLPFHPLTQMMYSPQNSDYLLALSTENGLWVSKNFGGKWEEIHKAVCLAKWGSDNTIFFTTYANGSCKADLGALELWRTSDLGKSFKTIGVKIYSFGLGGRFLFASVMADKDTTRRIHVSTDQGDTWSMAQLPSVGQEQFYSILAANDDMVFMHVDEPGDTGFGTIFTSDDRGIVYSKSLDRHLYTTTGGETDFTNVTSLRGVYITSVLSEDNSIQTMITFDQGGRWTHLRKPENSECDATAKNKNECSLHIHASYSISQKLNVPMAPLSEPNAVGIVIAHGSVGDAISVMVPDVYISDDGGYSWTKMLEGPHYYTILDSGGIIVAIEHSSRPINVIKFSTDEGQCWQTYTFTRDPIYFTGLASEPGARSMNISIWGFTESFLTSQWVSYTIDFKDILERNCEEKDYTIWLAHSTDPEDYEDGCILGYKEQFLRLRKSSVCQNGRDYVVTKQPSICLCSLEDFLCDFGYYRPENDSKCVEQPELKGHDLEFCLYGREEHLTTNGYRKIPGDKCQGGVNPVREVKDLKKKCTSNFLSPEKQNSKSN
# Procedure Details: ELISA, ECD-huSortilin-HIS coated at 1 ug/mL, goat anti-human IgG-HRP, chemiluminescence
Rule: measured EC50 below 0.09 µg/mL gets Criterion met; anything equal to or greater than 0.09 µg/mL gets Criterion not met.

Check out these entries, answers already filled in.
>>> class("humanized 11M14 hu11M14VHv1b/hu11M14VLv2b (antibody, V domains shown, Human IgG; also called 11M14H1bL2b) VH: EVQLVESGGGLVQPGGSLRLSCAASGFTFNIYGMSWVRQAPGKGLEWVATISSGGIYTYYPDILKGRFTISRDNAKNSLYLQMNSLRAEDTAVYYCARHPGGAMDYWGQGTLVTVSS VL: DIQMTQSPSSLSASVGDRVTITCRVSENIYSNLAWYQQKPGKSPKLLVYAATNLADGVPSRFSGSGSGTDYTLTISSLQPEDFATYYCQHFWGTPPWTFGQGTKLEIK")
"Criterion met"
>>> class("humanized 5E20 hu5E20VHv1/hu5E20VLv1 (antibody, V domains shown, Human IgG (detected or captured with anti-human IgG; huIgG1 control); also called 5E20H1L1) VH: EVQLLESGGGLVQPGGSLRLSCAASGFTFSTYGMSWVRQAPGKGLEWVAIISSGGSYTYYSDTVKGRFTISRDNSKNTLYLQMNSLRAEDTAVYYCSRSSSHWYFDVWGQGTLVTVSS VL: DIQMTQSPSSLSASVGDRVTITCHASQGISSNIGWLQQKPGKAFKGLIYHGTNLKDGVPSRFSGSGSGADFTLTISSLQPEDFATYFCVQYAQFPYTFGGGTKVEIR")
"Criterion not met"
>>> class("humanized 5E20 hu5E20VHv2/hu5E20VLv3 (antibody, V domains shown, Human IgG; also called 5E20H2L3) VH: EVQLVESGGGLVQPGGSLRLSCAASGFTFSTYGMSWVRQAPGKGLEWVAIISSGGSYTYYSDTVKGRFTISRDNSKNSLYLQMNSLRAEDTAVYYCSRSSSHWYFDVWGQGTLVTVSS VL: DIQMTQSPSSVSASVGDRVTITCHASQGISSNIGWLQQKPGKAFKGLIYHGTNLKDGVPSRFSGSGSGADFTLTISSLQPEDFATYFCVQYAQFPYTFGQGTKVEKR")
"Criterion not met"
>>> class("humanized 5E20 hu5E20VHv3/hu5E20VLv4 (antibody, V domains shown, Human IgG; also called 5E20H3L4) VH: EVQLVESGGGLVQPGGSLRLSCAASGFTFSTYGMSWVRQAPGKRLEWVAIISSGGSYTYYSDTVKGRFTISRDNSKNSLYLQMNSLRAEDTAVYYCSRSSSHWYFDVWGQGTLVTVSS VL: DIQMTQSPSSVSASVGDRVTITCHASQGISSNIGWLQQKPGKAFKGLIYHGTNLKDGVPSRFSGSGSGADFTLTISSLQPEDFADYFCVQYAQFPYTFGQGTKVEKR")
"Criterion met"
>>> class("humanized 5E20 hu5E20VHv1/hu5E20VLv2 (antibody, V domains shown, Human IgG; also called 5E20H1L2) VH: EVQLLESGGGLVQPGGSLRLSCAASGFTFSTYGMSWVRQAPGKGLEWVAIISSGGSYTYYSDTVKGRFTISRDNSKNTLYLQMNSLRAEDTAVYYCSRSSSHWYFDVWGQGTLVTVSS VL: DIQMTQSPSSVSASVGDRVTITCHASQGISSNIGWLQQKPGKAFKGLIYHGTNLKDGVPSRFSGSGSGADFTLTISSLQPEDFATYFCVQYAQFPYTFGQGTKVEIR")
"Criterion not met"

Q: Please check: EC50 for humanized 11M14 hu11M14VHv1b/hu11M14VLv4b (antibody, V domains shown, Human IgG; also called 11M14H1bL4b) VH: EVQLVESGGGLVQPGGSLRLSCAASGFTFNIYGMSWVRQAPGKGLEWVATISSGGIYTYYPDILKGRFTISRDNAKNSLYLQMNSLRAEDTAVYYCARHPGGAMDYWGQGTLVTVSS VL: DIQMTQSPSSLSASVGDRVTITCRVSENIYSNLAWYQQKPGKSPKLLVYAATNIADGVPSRFSGSGSGTDYTLTISSLQPEDFATYYCQHFWGTPPWTFGQGTKLEIK , strictly under 0.09 µg/mL or not?
Result: Criterion met

Q: Please check: EC50 for humanized 8H24 hu8H24VHv2/hu8H24VLv2 (antibody, V domains shown, Human IgG; also called 8H24H2L2) VH: QAQLVQSGAEVVKPGSSVKVSCKASGYTFTSYSMHWVRQAPGQGLEWIGAIYPGNDATSYNQKFKGRATLTVDKSTSTAYMELSSLRSEDTAVYFCAREGYYGSSFEAWFASWGQGTTVTVSS VL: DVVMTQTPSSLPVTPGEPASISCRSSQSIVHSNGNTYLEWYLQKPGQSPQLLIYKVSNRFSGVPDRFSGSGSGTDFTLTISRVEAEDVGVYYCFQGSHVLPTFGGGTKVEIK , strictly under 0.09 µg/mL or not?
Result: Criterion met

Q: Please check: EC50 for humanized 5E20 hu5E20VHv7/hu5E20VLv4 (antibody, V domains shown, Human IgG; also called 5E20H7L4; hu5E20H7L4) VH: EVQLVESGGGLVQPGGSLRLSCAASGFTFSTYGMSWVRQTPDKRLEWVAIISSGGSYTYYSDTVKGRFTISRDNSKNSLYLQMNSLRAEDTAVYYCSRSSSHWYFDVWGQGTLVTVSS VL: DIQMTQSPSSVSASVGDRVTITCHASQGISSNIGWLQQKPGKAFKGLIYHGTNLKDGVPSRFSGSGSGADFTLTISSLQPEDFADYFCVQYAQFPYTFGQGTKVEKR , strictly under 0.09 µg/mL or not?
Result: Criterion met

Sourced from patent US20230235048A1
